Origin of measurements: a melting point compilation (Tetko et al.; mined from patent text by program, amines drawn as free bases though some values may be those of a salt)

The following compounds are shown together with reported melting point values.
ENDPOINT LABEL: melting point

{"COMPOUND": "Clc1ccc2nc(Cl)nc(-c3ccccc3)c2c1", "RESULT": "159 to 160 °C"}
{"COMPOUND": "CSc1cncc(O)c1", "RESULT": "179 °C"}
{"COMPOUND": "Nc1ccc(C(=O)O)cc1NCc1ccccc1Cl", "RESULT": "176 to 177 °C"}
{"COMPOUND": "COc1ccc(C(=O)Nc2ccccc2)cc1NCc1ccc(C(C)(C)C)cc1", "RESULT": "195 to 197 °C"}
{"COMPOUND": "Cn1c(=O)c2c(ncn2CC(O)CN2CCN(C(=O)c3ccco3)CC2)n(C)c1=O (stereo unspecified)", "RESULT": "100 °C"}
{"COMPOUND": "CN(CCCNc1ccc(C#N)cc1)C1C2CCC1CN(Cc1ccccc1)C2 (stereo unspecified)", "RESULT": "91 to 93 °C"}
{"COMPOUND": "CCOCc1nc2c(N)nc(C)c(C)c2n1NCCCNS(C)(=O)=O", "RESULT": "147 to 149 °C"}
{"COMPOUND": "CCCCCC(=O)c1c(CN(CC)CC)nc2cc(OC)c(OC)cc2c1-c1ccc(OC)c(OC)c1", "RESULT": "104 to 106 °C"}
{"COMPOUND": "Cc1cc(=O)c(-c2ccc(Oc3ccc(Cl)cc3)cc2)c(C)n1O", "RESULT": "232 to 236 °C"}
{"COMPOUND": "Nc1cccc(C(=O)O)c1S", "RESULT": "255 to 258 °C"}
{"COMPOUND": "CCCCC1C(C(=O)/C=C/c2ccc(OC)cc2)C(=O)CC(c2ccc(OC)cc2)C1[N+](=O)[O-] (stereo unspecified)", "RESULT": "127 to 129 °C"}
{"COMPOUND": "O=C(O)C1CCN(c2ncc(NS(=O)(=O)c3ccccc3Br)c(NCc3ccccc3)n2)CC1", "RESULT": "114 to 117 °C"}
{"COMPOUND": "COc1cccc2c1C13CCN(CC4CC4)C(C2)C1(O)CCC(=O)C3 (stereo unspecified)", "RESULT": "133 to 135 °C"}
{"COMPOUND": "COc1ccc(-c2cn(C)cc(-c3ccc(OC)c(OC)c3)c2=O)cc1OC", "RESULT": "182 to 184 °C"}
{"COMPOUND": "COc1cc(-c2nc(-n3c(C)ccc3C)sc2SCC2CCCCC2)c(OC)cc1C", "RESULT": "117 to 118 °C"}
{"COMPOUND": "Cc1cccc(C(=O)NC(C)C)c1[N+](=O)[O-]", "RESULT": "126 to 128 °C"}
{"COMPOUND": "Cn1ccc2c3c(c(C(=O)O)cc21)C(=O)NC3=O", "RESULT": "313 to 318 °C"}
{"COMPOUND": "COC[C@](C#N)(C(=O)OC)[C@H](c1ccccc1OC)c1cccc2ccccc12", "RESULT": "148 to 151 °C"}
{"COMPOUND": "O=C1NC(=S)NC(=O)C1=Cc1ccc[nH]1", "RESULT": "280 °C"}
{"COMPOUND": "C#CCn1c(-c2ccccc2)nc(C=C)c(CC)c1=O", "RESULT": "113 to 115 °C"}
{"COMPOUND": "COCCn1nc(-c2sc(C(=O)NC(C)C)nc2-c2ccccc2)ccc1=O", "RESULT": "172 °C"}
{"COMPOUND": "Cc1ccc(-c2ccc3c(c2)C=C(CNc2ccc(CN(C)C4CCOCC4)cc2)CCO3)cc1", "RESULT": "158 to 160 °C"}
{"COMPOUND": "Cc1nc(N2CCN(CC(C)C)C2=O)sc1C(=O)NCc1ccncc1", "RESULT": "185 to 187 °C"}
{"COMPOUND": "COc1cc(OS(C)(=O)=O)ccc1C1=NC2=NCC(=O)NC2=N1", "RESULT": "> 260 °C"}
{"COMPOUND": "COC(=O)C1=CC(=O)CCC1c1ccccc1 (racemic)", "RESULT": "66 °C"}
{"COMPOUND": "O=C(NCc1ccc([N+](=O)[O-])cc1)N(c1ccccc1)c1ccccc1", "RESULT": "137 to 138 °C"}
{"COMPOUND": "CCCCOCCOc1ccc(-c2ccc3c(c2)C=C(C(=O)Nc2ccc(CSc4nncs4)cc2)CCN3CC(C)C)cc1", "RESULT": "77 to 79 °C"}
{"COMPOUND": "COC(=O)C(S)CNC(=O)C(=O)NCC(S)C(=O)OC (stereo unspecified)", "RESULT": "150 to 151 °C"}
{"COMPOUND": "O=c1occc2ccc(Cl)cc12", "RESULT": "110 to 111 °C"}
{"COMPOUND": "O=C(N1CCCC1)N1Cc2c(-c3ccc(F)cc3)ncn2-c2ccccc21", "RESULT": "217 to 218 °C"}
{"COMPOUND": "N#Cc1ccc(C2C3=C(CCCC3)NC3=C2C(=O)CCC3)cc1C(F)(F)F (stereo unspecified)", "RESULT": "210 to 212 °C"}
